test system: CANDIDA ALBICANS CCH 442; assay: In vitro antibacterial activity, MIC, BHI agar dilution; type: cell-based; settings: C. albicans CCH 442, unit assumed
Listing of recorded MIC by entry.

CC[C@H]1OC(=O)[C@H](C)C(=O)[C@H](C)[C@@H](O[C@@H]2O[C@H](C)C[C@H](N(C)C)[C@H]2O)[C@](C)(OC)C[C@@H](C)C2=NC3CN(Cc4ccccc4)CC3N3C(=O)O[C@@]1(C)[C@H]3[C@H]2C (stereo partly shown) ... > 100 µg/mL
CC[C@H]1OC(=O)[C@H](C)C(=O)[C@H](C)[C@@H](O[C@@H]2O[C@H](C)C[C@H](N(C)C)[C@H]2O)[C@](C)(OC)C[C@@H](C)C2=N[C@H](COCc3ccc(Cl)cc3)CN3C(=O)O[C@@]1(C)[C@H]3[C@H]2C ... 100 µg/mL
CC[C@H]1OC(=O)[C@H](C)C[C@H](C)[C@@H](O[C@@H]2O[C@H](C)C[C@H](N(C)C)[C@H]2O)[C@](C)(OC)C[C@@H](C)C2=NCCN3C(=O)O[C@@]1(C)[C@H]3[C@H]2C ... > 100 µg/mL

// next entry
What value of MIC has been recorded for this entry: CC[C@H]1OC(=O)[C@H](C)C(=O)[C@H](C)[C@@H](O[C@@H]2O[C@H](C)C[C@H](N(C)C)[C@H]2O)[C@](C)(OC)C[C@@H](C)C2=N[C@H](COCCN3CCOCC3)CN3C(=O)O[C@@]1(C)[C@H]3[C@H]2C
> 100 µg/mL

* * *

test system: STAPHYLOCOCCUS AUREUS CMX 553; test: In vitro antibacterial activity, MIC, BHI agar dilution; assay type: cell-based; conditions: S. aureus CMX 553, unit assumed
Listing of recorded MIC by entry.
Hi! Could you send only the number? It should be in µg/mL, unit omitted.

CC[C@H]1OC(=O)[C@H](C)C(=O)[C@H](C)[C@@H](O[C@@H]2O[C@H](C)C[C@H](N(C)C)[C@H]2O)[C@](C)(OC)C[C@@H](C)C2=NC3CN(C=O)CC3N3C(=O)O[C@@]1(C)[C@H]3[C@H]2C (stereo partly shown) [Example 124] ... 0.78
CC[C@H]1OC(=O)[C@H](C)C(=O)[C@H](C)[C@@H](O[C@@H]2O[C@H](C)C[C@H](N(C)C)[C@H]2O)[C@](C)(OC)C[C@@H](C)C2=N[C@H](COCc3cccnc3)CN3C(=O)O[C@@]1(C)[C@H]3[C@H]2C [Example 82] ... 0.39

What value of MIC has been recorded for this entry: CC[C@H]1OC(=O)[C@H](C)C(=O)[C@H](C)[C@@H](O[C@@H]2O[C@H](C)C[C@H](N(C)C)[C@H]2O)[C@](C)(OC)C[C@@H](C)C2=N[C@H](COCc3ccc(Br)cc3)CN3C(=O)O[C@@]1(C)[C@H]3[C@H]2C [Example 103]
0.05

# repeat for CC[C@H]1OC(=O)[C@H](C)C(=O)[C@H](C)[C@@H](O[C@@H]2O[C@H](C)C[C@H](N(C)C)[C@H]2O)[C@](C)(OC)C[C@@H](C)C2=N[C@H](COCCN3CCOCC3)CN3C(=O)O[C@@]1(C)[C@H]3[C@H]2C [Example 87]
1.56

* * *

tested on: STAPHYLOCOCCUS AUREUS A5177; experiment: In vitro antibacterial activity, MIC, BHI agar dilution; assay type: cell-based; conditions: S. aureus A5177, unit assumed
Quantity name: MIC (µg/mL)
Hi! Could you send only the number? It should be in µg/mL, unit omitted.

See these solved cases before continuing.
CCC1OC(=O)C(C)C(=O)C(C)C(OC2OC(C)CC(N(C)C)C2O)C(C)(OC)CC(C)C2=NC(CN3CCCCC3)CN3C(=O)OC1(C)C3C2C (centres unmarked) [Example 96] ... 0.2
CCC1OC(=O)C(C)C(=O)C(C)C(OC2OC(C)CC(N(C)C)C2O)C(C)(OC)CC(C)C2=NC(CN)CN3C(=O)OC1(C)C3C2C (centres unmarked) [Example 16] ... 0.39
CC[C@H]1OC(=O)[C@H](C)C(=O)[C@H](C)[C@@H](O[C@@H]2O[C@H](C)C[C@H](N(C)C)[C@H]2O)[C@](C)(OC)C[C@@H](C)C2=N[C@H](COCc3ccccn3)CN3C(=O)O[C@@]1(C)[C@H]3[C@H]2C [Example 81] ... 0.39
C#CCN1CC2N=C3[C@H](C)C[C@@](C)(OC)[C@H](O[C@@H]4O[C@H](C)C[C@H](N(C)C)[C@H]4O)[C@@H](C)C(=O)[C@@H](C)C(=O)O[C@H](CC)[C@@]4(C)OC(=O)N(C2C1)[C@@H]4[C@H]3C (some centres unmarked) [Example 117] ... 0.78

// next entry
What value of MIC has been recorded for this entry: CC[C@H]1OC(=O)[C@H](C)C(=O)[C@H](C)[C@@H](O[C@@H]2O[C@H](C)C[C@H](N(C)C)[C@H]2O)[C@](C)(OC)C[C@@H](C)C2=NC[C@@H](C)N3C(=O)O[C@@]1(C)[C@H]3[C@H]2C [Example 9]
0.39

* * *

system: STREPTOCOCCUS PYOGENES EES61; assay: In vitro antibacterial activity, MIC, BHI agar dilution; type: cell-based; details: S. pyogenes EES61, unit assumed
Listing of recorded MIC by entry.
Hi! Could you send only the number? It should be in mg/L, unit omitted.

CC[C@H]1OC(=O)[C@H](C)C(=O)[C@H](C)[C@@H](O[C@@H]2O[C@H](C)C[C@H](N(C)C)[C@H]2O)[C@](C)(OC)C[C@@H](C)C2=NC[C@H](Cc3ccc(O)cc3)N3C(=O)O[C@@]1(C)[C@H]3[C@H]2C ... 0.02
CC[C@H]1OC(=O)[C@H](C)C(=O)[C@H](C)[C@@H](O[C@@H]2O[C@H](C)C[C@H](N(C)C)[C@H]2O)[C@](C)(OC)C[C@@H](C)C2=N[C@H](CN(C)Cc3ccccc3)CN3C(=O)O[C@@]1(C)[C@H]3[C@H]2C ... 0.01
CC[C@H]1OC(=O)[C@H](C)C(=O)[C@H](C)[C@@H](O[C@@H]2O[C@H](C)C[C@H](N(C)C)[C@H]2O)[C@](C)(OC)C[C@@H](C)C2=N[C@H](COCCN3CCOCC3)CN3C(=O)O[C@@]1(C)[C@H]3[C@H]2C ... 0.2
CC[C@H]1OC(=O)[C@H](C)C[C@H](C)[C@@H](O[C@@H]2O[C@H](C)C[C@H](N(C)C)[C@H]2O)[C@](C)(OC)C[C@@H](C)C2=NCCN3C(=O)O[C@@]1(C)[C@H]3[C@H]2C ... 0.39
CC[C@H]1OC(=O)[C@H](C)C(=O)[C@H](C)[C@@H](O[C@@H]2O[C@H](C)C[C@H](N(C)C)[C@H]2O)[C@](C)(OC)C[C@@H](C)C2=N[C@H](COCc3ccc(Cl)cc3)CN3C(=O)O[C@@]1(C)[C@H]3[C@H]2C ... 0.01

// next entry
What value of MIC has been recorded for this entry: CC[C@H]1OC(=O)[C@H](C)C(=O)[C@H](C)[C@@H](O[C@@H]2O[C@H](C)C[C@H](N(C)C)[C@H]2O)[C@](C)(OC)C[C@@H](C)C2=N[C@H](CCOCc3ccccc3)CN3C(=O)O[C@@]1(C)[C@H]3[C@H]2C
0.05

* * *

Listing of recorded MIC by entry.
test system: STREPTOCOCCUS PYOGENES PIU 2548; assay: In vitro antibacterial activity, MIC, BHI agar dilution; type: cell-based; settings: S. pyogenes PIU 2548, unit assumed
Hi! Could you send only the number? It should be in µg/mL, unit omitted.

See these solved cases before continuing.
CC[C@H]1OC(=O)[C@H](C)C(=O)[C@H](C)[C@@H](O[C@@H]2O[C@H](C)C[C@H](N(C)C)[C@H]2O)[C@](C)(OC)C[C@@H](C)C2=N[C@H](CO)CN3C(=O)O[C@@]1(C)[C@H]3[C@H]2C ... 1.56
CC[C@H]1OC(=O)[C@H](C)C(=O)[C@H](C)[C@@H](O[C@@H]2O[C@H](C)C[C@H](N(C)C)[C@H]2O)[C@](C)(OC)C[C@@H](C)C2=NC3CN(CCc4ccccc4[N+](=O)[O-])CC3N3C(=O)O[C@@]1(C)[C@H]3[C@H]2C (stereo partly shown) ... 0.78
CCC1OC(=O)C(C)C(=O)C(C)C(OC2OC(C)CC(N(C)C)C2O)C(C)(OC)CC(C)C2=NC(COCSC)CN3C(=O)OC1(C)C3C2C (stereo not shown) ... 0.39

// next entry
Form entry - test system: STREPTOCOCCUS PYOGENES PIU 2548; read-out: MIC; molecule: CC[C@H]1OC(=O)[C@H](C)C(=O)[C@H](C)[C@@H](O[C@@H]2O[C@H](C)C[C@H](N(C)C)[C@H]2O)[C@](C)(OC)C[C@@H](C)C2=NC3CN(Cc4ccccc4)CC3N3C(=O)O[C@@]1(C)[C@H]3[C@H]2C (stereo partly shown)
0.2
